- Test system: SK-MEL-28
- ASSAY NAME: SRB colorimetric assay of cell growth and viability, SK-MEL-28
- Format: cell-based, human
- TEST CONTEXT: 48 hours exposure
- Description: The finality of this assay is to interrupt the growth of a “in vitro” tumor cell culture by means a continued exhibition of the cells to the sample to be testing. […] Cells are seeded in 96 well microtiter plates, at 5×10^3 cells per well in aliquots of 195 μL medium, and they are allowed to attach to the plate surface by growing in drug free medium for 18 hours. […] Optical densities are read on a automated spectrophotometric plate reader at a single wavelength of 490 nm. […]
Where a SMILES comes first, the peptide text is derived from it. Bridges are numbered along the chain shown (N, C = ends). [ ]: non-standard residue; d: D form. The star is where a group is joined. d(aIle) = CC[C@H](C)[C@@H](N)C(=O)O; d(aThr) = C[C@@H](O)[C@@H](N)C(=O)O; Hexanoyl(5-Me) = CC(C)CCCC(=O)*; Orn = NCCC[C@H](N)C(=O)O; Dhb = C/C=C(\N)C(=O)O; Aib = CC(C)(N)C(=O)O
REPORTED METRIC: TGI MEL-28 (Molar)
Give bare numbers, in Molar.

{"columns": ["COMPOUND", "UNIT TEXT", "TGI MEL-28"],
 "data": [
  ["CC[C@H](C)[C@@H](NC(=O)[C@H](CCCN)NC(=O)[C@H]1CCCN1C(=O)[C@H](NC(=O)[C@@H](NC(=O)[C@@H](NC(=O)[C@H](NC(=O)CCCC(C)C)C(C)C)[C@@H](C)O)C(C)C)C(C)C)C(=O)N[C@H]1C(=O)N[C@H]([C@@H](C)CC)C(=O)N[C@H](C(C)C)C(=O)N[C@@H](Cc2ccccc2)C(=O)NC(C)(C)C(=O)N[C@@H](C(C)C)C(=O)O[C@@H]1C [Compound 66, [Aib^2]-KF] ({Hexanoyl(5-Me)}-[dV]TV[dV][dP][Orn][d(aIle)][d(aThr)][d(aIle)][dV]F[Aib]V; ester 8-C)", "Molar", "6.14E−06"]
]}

--- query ---
# lookup: TGI MEL-28 of C/C=C1\NC(=O)[C@H](Cc2ccccc2)NC(=O)[C@@H](C(C)C)NC(=O)[C@@H]([C@@H](C)CC)NC(=O)[C@H](NC(=O)[C@H](NC(=O)[C@H](CCCN)NC(=O)[C@H]2CCCN2C(=O)[C@H](NC(=O)[C@@H](NC(=O)[C@H](C)NC(=O)CCCC(C)C)C(C)C)C(C)C)[C@@H](C)CC)[C@@H](C)OC(=O)[C@H](C(C)C)NC1=O [Compound 52, [Ala^12, noD-Val^13]-KF] ({Hexanoyl(5-Me)}-AV[dV][dP][Orn][d(aIle)][d(aThr)][d(aIle)][dV]F[Dhb]V; ester 7-C)
7.41E−06
